target.or.test.system: β-catenin (Homo sapiens)
Sequence (P35222 1-781): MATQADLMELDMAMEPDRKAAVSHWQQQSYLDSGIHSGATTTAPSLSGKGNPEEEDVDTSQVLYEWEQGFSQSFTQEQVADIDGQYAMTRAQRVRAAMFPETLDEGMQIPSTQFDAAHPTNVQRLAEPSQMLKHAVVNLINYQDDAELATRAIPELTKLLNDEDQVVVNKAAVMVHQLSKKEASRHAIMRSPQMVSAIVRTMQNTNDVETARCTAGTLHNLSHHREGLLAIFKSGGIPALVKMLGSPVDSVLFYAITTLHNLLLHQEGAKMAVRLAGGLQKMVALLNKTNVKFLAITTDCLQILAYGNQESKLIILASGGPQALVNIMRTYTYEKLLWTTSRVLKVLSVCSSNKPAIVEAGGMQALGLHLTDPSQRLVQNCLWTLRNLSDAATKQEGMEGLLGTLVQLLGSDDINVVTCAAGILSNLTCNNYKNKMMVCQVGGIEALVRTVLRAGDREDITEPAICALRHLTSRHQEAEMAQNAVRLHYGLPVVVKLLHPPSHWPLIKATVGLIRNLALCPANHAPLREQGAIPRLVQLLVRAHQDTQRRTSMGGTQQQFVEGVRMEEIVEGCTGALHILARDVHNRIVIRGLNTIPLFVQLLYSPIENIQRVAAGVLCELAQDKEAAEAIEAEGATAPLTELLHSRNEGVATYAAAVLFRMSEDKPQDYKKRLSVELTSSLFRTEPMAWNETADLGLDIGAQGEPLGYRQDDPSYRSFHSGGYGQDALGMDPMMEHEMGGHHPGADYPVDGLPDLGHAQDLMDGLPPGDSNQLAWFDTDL
measurement.protocol: KD50 measurement using competitive fluorescence polarization (FP) with labelled TCF4
Assay type: binding
details: fluorescence polarization, β-catenin; read-out: β-Cat FP KD
pKd: −log10 of the molar value. Where a SMILES comes first, the peptide text is derived from it.
property.measured: pKd

pKd reading for CC[C@H](C)[C@H](NC(=O)[C@H](CC(C)C)NC(=O)C(C)(Cc1ccccc1)NC(=O)[C@H](Cc1c[nH]c2ccccc12)NC(=O)[C@@H](N)CCSC)C(=O)N[C@@H](CO)C(=O)N[C@@H](Cc1ccccc1)C(=O)N[C@@H](Cc1c[nH]c2ccccc12)C(=O)NCC(=O)O (stereo partly shown) [compound 133] (HELM PEPTIDE1{M.W.[CC(Cc1ccccc1)(N[*:1])C(=O)[*:2]].L.I.S.F.W.G}$$$$V2.0) : > 6.40

Summary for this compound, CC[C@H](C)[C@H](NC(=O)[C@H](CC(C)C)NC(=O)[C@H](Cc1ccccc1)NC(=O)[C@H](Cc1c[nH]c2ccccc12)NC(C)=O)C(=O)N[C@@H](CS)C(=O)N[C@@H](Cc1ccccc1)C(=O)N[C@@H](Cc1c[nH]c2ccccc12)C(=O)NCC(=O)O [compound 194] (Ac-WFLICFWG-OH) : pKd is 6.00 to 6.40

Entry CC[C@H](C)[C@@H]1NC(=O)[C@H](CC(C)C)NC(=O)[C@H](CC2CCCCC2)NC(=O)[C@H](Cc2c[nH]c3ccccc23)NC(=O)[C@@H](N)CCCCNC(=O)C[C@@H](C(=O)O)NC(=O)[C@H](Cc2c[nH]c3ccccc23)NC(=O)[C@H](C)NC(=O)[C@H](CO)NC1=O [compound 203] (HELM PEPTIDE1{K.W.[Cha].L.I.S.A.W.D}$PEPTIDE1,PEPTIDE1,1:R3-9:R3$$$V2.0) , pKd reported as < 4.52

Value of pKd reported for the compound CC[C@H](C)[C@@H]1NC(=O)[C@H](CC(C)C)NC(=O)[C@H]([C@@H](C)CC)NC(=O)[C@H](Cc2c[nH]c3ccccc23)NC(=O)[C@@H](N)CCCCNC(=O)CC[C@@H](C(=O)O)NC(=O)[C@H](Cc2c[nH]c3ccccc23)NC(=O)[C@H](C)NC(=O)[C@H](CO)NC1=O [compound 184] (HELM PEPTIDE1{K.W.I.L.I.S.A.W.E}$PEPTIDE1,PEPTIDE1,1:R3-9:R3$$$V2.0) is 4.52 to 5.00

Per the record, CC[C@@H]1NC(=O)[C@H]([C@@H](C)CC)NC(=O)[C@H](CC(C)C)NC(=O)[C@H](Cc2ccccc2)NC(=O)[C@H](Cc2c[nH]c3ccccc23)NC(=O)[C@@H](N)CCCCNC(=O)C[C@@H](C(=O)O)NC(=O)[C@H](Cc2c[nH]c3ccccc23)NC(=O)[C@H](C)NC1=O [compound 244] (HELM PEPTIDE1{K.W.F.L.I.[Abu].A.W.D}$PEPTIDE1,PEPTIDE1,1:R3-9:R3$$$V2.0) has pKd of 6.00 to 6.40

// pKd lookup, compound = CC[C@H](C)[C@H](NC(=O)[C@H](Cc1c[nH]c2ccccc12)NC(=O)[C@@H](N)CCSC)C(=O)NC(C)(CC(C)C)C(=O)N[C@H](C(=O)N[C@@H](CO)C(=O)N[C@@H](Cc1ccccc1)C(=O)N[C@@H](Cc1c[nH]c2ccccc12)C(=O)NCC(=O)O)[C@@H](C)CC (stereo partly shown) [compound 138] (HELM PEPTIDE1{M.W.I.[CC(C)CC(C)(N[*:1])C(=O)[*:2]].I.S.F.W.G}$$$$V2.0) , result: < 4.52

The compound listed as CC[C@H](C)[C@H](NC(=O)[C@H](CC(C)C)NC(=O)[C@@H](NC(=O)[C@H](Cc1c[nH]c2ccccc12)NC(=O)[C@@H](N)CCSC)[C@@H](C)CC)C(=O)N[C@@H](CCO)C(=O)N[C@@H](Cc1ccccc1)C(=O)N[C@@H](Cc1c[nH]c2ccccc12)C(=O)NCC(=O)O [compound 144] (HELM PEPTIDE1{M.W.I.L.I.[O=C([C@H](CCO)N[*:1])[*:2]].F.W.G}$$$$V2.0) has a reported pKd of < 4.52

Record CC[C@H](C)[C@@H]1NC(=O)[C@H](CC(C)C)NC(=O)[C@H](Cc2ccccc2)NC(=O)[C@H](Cc2c[nH]c3ccccc23)NC(=O)[C@H](CCSC)NC(=O)[C@H](CCCNC(=N)N)NC(=O)[C@H](CO)NC(=O)[C@H](CCSC)NC(=O)[C@@H](N)CCCCNC(=O)CNC(=O)[C@H](CCCNC(=N)N)NC(=O)[C@H](Cc2c[nH]c3ccccc23)NC(=O)[C@H](Cc2ccccc2)NC(=O)[C@H](CO)NC1=O [compound 24] (HELM PEPTIDE1{K.M.S.R.M.W.F.L.I.S.F.W.R.G}$PEPTIDE1,PEPTIDE1,1:R3-14:R2$$$V2.0; bridges inferred) . Reported pKd: > 6.40

Measured pKd of CC[C@H](C)[C@H](NC(=O)[C@H](CC(C)C)NC(=O)[C@@H](NC(=O)C(C)(Cc1c[nH]c2ccccc12)NC(=O)[C@@H](N)CCSC)[C@@H](C)CC)C(=O)N[C@@H](CO)C(=O)N[C@@H](Cc1ccccc1)C(=O)N[C@@H](Cc1c[nH]c2ccccc12)C(=O)NCC(=O)O (stereo partly shown) [compound 134] (HELM PEPTIDE1{M.[CC(Cc1c[nH]c2ccccc12)(N[*:1])C(=O)[*:2]].I.L.I.S.F.W.G}$$$$V2.0) : 5.00 to 6.00

CCOC[C@H](NC(=O)[C@H](CO)NC(=O)[C@@H](NC(=O)[C@H](CC(C)C)NC(=O)[C@H](Cc1ccccc1)NC(=O)[C@@H](N)Cc1c[nH]c2ccccc12)[C@@H](C)CC)C(=O)N[C@@H](Cc1c[nH]c2ccccc12)C(=O)O [compound 104] (H-WFLISS(Et)W-OH) has a reported pKd of 5.00 to 6.00
